# Target Under Test: CYP2D6 (Homo sapiens, UniProt P10635)
# Sequence (P10635 whole entry): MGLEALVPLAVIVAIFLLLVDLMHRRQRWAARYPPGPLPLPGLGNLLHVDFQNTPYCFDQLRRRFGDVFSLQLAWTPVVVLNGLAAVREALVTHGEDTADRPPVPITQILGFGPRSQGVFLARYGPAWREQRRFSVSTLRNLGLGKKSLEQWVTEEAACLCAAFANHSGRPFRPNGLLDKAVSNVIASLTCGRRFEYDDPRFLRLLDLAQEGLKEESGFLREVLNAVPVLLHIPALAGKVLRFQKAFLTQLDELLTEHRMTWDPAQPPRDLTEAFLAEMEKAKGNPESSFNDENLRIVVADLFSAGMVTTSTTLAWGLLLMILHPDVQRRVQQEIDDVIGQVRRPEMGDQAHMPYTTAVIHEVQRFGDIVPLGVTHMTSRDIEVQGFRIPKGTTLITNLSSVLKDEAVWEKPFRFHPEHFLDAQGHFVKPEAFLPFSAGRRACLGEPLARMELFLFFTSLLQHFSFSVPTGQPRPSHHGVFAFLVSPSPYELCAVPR
# Method Summary: CYP2D6 inhibition in human liver microsomes
# Type: in vitro ADME
# Study Conditions: human, probe dextromethorphan
Measure Name: inhibition at 10 µM (%)
Express the result in % but write the number alone.

Q) Consider the compound `CC1(C)CCC(C)(C)c2cc(C3(c4ccc(/C=C/C(=O)O)cc4)OCCO3)ccc21` and give its measured inhibition at 10 µM.
A) 50

---

# Target Under Test: CYP26B1 (Homo sapiens)
# Sequence (Q9NR63 1-512): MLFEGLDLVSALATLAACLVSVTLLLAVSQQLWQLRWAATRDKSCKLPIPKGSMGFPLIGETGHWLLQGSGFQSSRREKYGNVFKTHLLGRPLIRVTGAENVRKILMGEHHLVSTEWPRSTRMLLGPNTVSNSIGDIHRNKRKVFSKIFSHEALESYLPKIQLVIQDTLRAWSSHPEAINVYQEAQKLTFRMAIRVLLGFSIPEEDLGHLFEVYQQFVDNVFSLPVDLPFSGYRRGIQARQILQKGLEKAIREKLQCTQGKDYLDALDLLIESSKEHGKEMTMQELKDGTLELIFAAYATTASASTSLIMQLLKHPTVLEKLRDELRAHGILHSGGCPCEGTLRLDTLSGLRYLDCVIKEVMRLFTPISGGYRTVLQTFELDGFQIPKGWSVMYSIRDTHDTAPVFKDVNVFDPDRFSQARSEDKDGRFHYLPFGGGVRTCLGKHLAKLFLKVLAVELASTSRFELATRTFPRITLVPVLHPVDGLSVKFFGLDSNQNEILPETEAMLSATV
# Method Summary: CYP26B1 inhibition assay
Measure Name: pKi
Answer as the number alone; pKi is minus log10 of concentration in mol/L.

Q) Consider the molecule CCC(CC)C(c1ccc(Nc2nc3ccccc3s2)cc1)n1cncn1 (stereo not shown) [Compound 3, talarozole] and give its measured pKi.
A) 9.34
